In this section, each of the compounds is paired with its reported pIC50.
Biological target: human calcium-sensing receptor (CaSR) (Homo sapiens)
Sequence (P41180 20-1078): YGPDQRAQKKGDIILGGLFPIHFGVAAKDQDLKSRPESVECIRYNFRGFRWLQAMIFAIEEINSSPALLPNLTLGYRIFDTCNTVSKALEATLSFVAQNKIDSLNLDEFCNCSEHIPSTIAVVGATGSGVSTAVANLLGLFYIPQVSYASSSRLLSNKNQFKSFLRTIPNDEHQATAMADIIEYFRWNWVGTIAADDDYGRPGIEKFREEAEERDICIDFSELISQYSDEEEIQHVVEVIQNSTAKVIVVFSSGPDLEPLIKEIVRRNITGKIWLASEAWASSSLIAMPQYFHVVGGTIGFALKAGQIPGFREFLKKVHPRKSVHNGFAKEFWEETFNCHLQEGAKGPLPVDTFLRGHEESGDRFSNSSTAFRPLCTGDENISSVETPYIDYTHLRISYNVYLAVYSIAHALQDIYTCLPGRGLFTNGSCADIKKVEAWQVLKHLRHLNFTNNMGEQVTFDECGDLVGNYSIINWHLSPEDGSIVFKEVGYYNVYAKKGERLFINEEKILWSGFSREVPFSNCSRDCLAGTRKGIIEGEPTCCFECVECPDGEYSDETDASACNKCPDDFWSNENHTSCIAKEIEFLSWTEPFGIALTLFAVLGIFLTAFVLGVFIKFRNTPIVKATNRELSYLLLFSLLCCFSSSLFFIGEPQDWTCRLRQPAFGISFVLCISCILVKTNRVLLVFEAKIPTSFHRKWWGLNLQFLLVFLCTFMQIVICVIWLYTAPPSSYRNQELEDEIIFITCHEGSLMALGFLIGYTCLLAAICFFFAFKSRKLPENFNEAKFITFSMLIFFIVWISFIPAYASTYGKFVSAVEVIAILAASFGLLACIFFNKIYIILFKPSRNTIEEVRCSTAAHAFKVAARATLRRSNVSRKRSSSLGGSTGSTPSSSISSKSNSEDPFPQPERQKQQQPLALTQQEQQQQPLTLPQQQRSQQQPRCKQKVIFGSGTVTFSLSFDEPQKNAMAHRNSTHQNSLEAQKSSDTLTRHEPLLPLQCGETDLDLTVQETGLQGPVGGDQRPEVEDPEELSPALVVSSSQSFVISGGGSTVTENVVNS
Assay: Inhibitory activity on calcium-sensing receptor (CaSR), intracellular calcium increase as indicator (FLIPR, CHO/hCaSR)
Conditions: CHO cells stably expressing human CaSR; inhibition of intracellular Ca increase induced by extracellular CaCl2
pIC50: −log10 of the molar value.

Check out these entries, answers already filled in.
CCc1cc(C[C@@H]2CCCN2C[C@@H](O)CO[C@H](CC)c2cc(F)ccc2CCC(=O)O)ccc1Cl [Example 105]	≥ 5.50
CCc1cc(C[C@@H]2CCCN2C[C@@H](O)CO[C@H](C)c2ccc(Cl)cc2CCC(=O)O)ccc1Cl [Example 161]	≥ 5.50
C[C@@H](OC[C@H](O)CN1CCC[C@H]1Cc1ccc(Cl)c(F)c1)c1ccccc1CCC(=O)O [Example 159]	≥ 5.46

Now consider a different compound.
# value lookup — system human calcium-sensing receptor (CaSR) (Homo sapiens), readout pIC50, item CCC[C@@H](OC[C@H](O)CN1CCC[C@H]1Cc1ccc(C)c(F)c1)c1ccc(Cl)cc1CCC(=O)O [Example 124] ≥ 5.50

All values here come from patent US8173631B2.
